Source of measurements: patent US4401827A

So I've got a bunch of compounds here, and I need their inhibition at 1 µM values.
Test system: rat's ventricle strip
PROTOCOL_DETAILS: antiarrhythmic effect, isolated rat ventricle strip test
SETTINGS: Rattus norvegicus; concentration 1·10^-6 M; decrease; read-out: maximed frequency (- %), % variation versus basal value
Answers are plain numbers, in %.

COMPOUND	SCALE_UNIT	inhibition at 1 µM
C[N+](C)(C)CC(CC(=O)[O-])OC(=O)C=Cc1cccc(C(F)(F)F)c1 (racemic)	%	41.3
CCC(CC)C(=O)OC(CC(=O)[O-])C[N+](C)(C)C (racemic)	%	25.1
CC(C)(C)C(=O)OC(CC(=O)[O-])C[N+](C)(C)C (racemic)	%	58.4

Let us examine a further case.
q: Give the measured inhibition at 1 µM for C[N+](C)(C)CC(CC(=O)[O-])OC(=O)CCCCl (racemic)
a: 60.2

###

Tested on: arrhythmia induced by Aconitine in mice
PROTOCOL_DETAILS: arrhythmia induced by Aconitine in mice
Assay type: in vivo
SETTINGS: Mus musculus, iv, read-out: latency time increase % of controls, arrhythmias
MEASUREMENT_KIND: change in vivo at 300 mg/kg (%)
Numbers only, in %.

# annotated cases, reported change in vivo at 300 mg/kg shown
MOLECULE	MEASURED_TARGET	SCALE_UNIT	VALUE
CC(C)(C)C(=O)O[C@H](CC(=O)[O-])C[N+](C)(C)C	arrhythmia induced by Aconitine in mice	%	25
CC(C)(C)C(=O)OC(CC(=O)[O-])C[N+](C)(C)C (racemic)	arrhythmia induced by Aconitine in mice	%	20
CC(C)Cc1ccc(CC(=O)OC(CC(=O)[O-])C[N+](C)(C)C)cc1 (racemic)	arrhythmia induced by Aconitine in mice	%	20
C[N+](C)(C)CC(CC(=O)[O-])OC(=O)CCCCl (racemic)	arrhythmia induced by Aconitine in mice	%	20
C[N+](C)(C)CC(CC(=O)[O-])OC(=O)C=Cc1ccc(Cl)cc1 (racemic)	arrhythmia induced by Aconitine in mice	%	25

Please report change in vivo at 300 mg/kg for every entry that follows.
1. C[N+](C)(C)CC(CC(=O)[O-])OC(=O)C1CCCCC1 (racemic)
2. CCCCC(CC)C(=O)OC(CC(=O)[O-])C[N+](C)(C)C (racemic)
3. CCC(CC)C(=O)OC(CC(=O)[O-])C[N+](C)(C)C (racemic)

a:
1. 50
2. 20
3. 25

###

PROTOCOL_DETAILS: acute toxicity (tolerance) i.p. in mice, Weil method
SETTINGS: mouse, in vivo, ip, Weil method (N = 5, K = 4)
So I've got a bunch of compounds here, and I need their LD50 values.
Kindly format the answer as number then unit.

# annotated cases, reported LD50 shown
COMPOUND	LD50
CC(=O)C(=O)OC(CC(=O)[O-])C[N+](C)(C)C (racemic)	3900 mg/kg
C[N+](C)(C)CC(CC(=O)[O-])OC(=O)CCCCl (racemic)	850 mg/kg
CCCC(CCC)C(=O)O[C@H](CC(=O)[O-])C[N+](C)(C)C	294 mg/kg
C[N+](C)(C)CC(CC(=O)[O-])OC(=O)Cc1ccc2ccccc2c1 (racemic)	880 mg/kg
CCCCC(CC)C(=O)OC(CC(=O)[O-])C[N+](C)(C)C (racemic)	950 mg/kg

Please report LD50 for every entry that follows.
1. C[N+](C)(C)CC(CC(=O)[O-])OC(=O)C=Cc1cccc(C(F)(F)F)c1 (racemic)
2. C[N+](C)(C)C[C@@H](CC(=O)[O-])OC(=O)C=Cc1cccc(C(F)(F)F)c1

a:
1. 845 mg/kg
2. 540 mg/kg

###

Test system: arrhythmia induced by Aconitine in mice
PROTOCOL_DETAILS: arrhythmia induced by Aconitine in mice
Assay type: in vivo
SETTINGS: Mus musculus, iv, read-out: latency time increase % of controls, tachycardia
Experimental: The antiarrhythmic effect of the compounds was also investigated in mice according to the P. W. Nwangwu, T. Holcslow procedure (4). Using Aconitine (5 mg/ml) as arrhythmogenic agent, the changes in the cardiac rhythm of the animals were recorded and the onset time of initial arrhythmia and/or of ventricular tachycardia were used as End point. Antiarrhythmic agents display an increase in the latency time of initial ECG change. (4) P. W. Nvangvu, T. L. Holcslow, Arch. Int. Pharmacodyn. 229, 219 (1977) […]
So I've got a bunch of compounds here, and I need their change in vivo at 150 mg/kg values.
Give bare numbers, in %.

# annotated cases, reported change in vivo at 150 mg/kg shown
COMPOUND	change in vivo at 150 mg/kg, %
CCCC(CCC)C(=O)OC(CC(=O)[O-])C[N+](C)(C)C (racemic)	55
C[N+](C)(C)CC(CC(=O)[O-])OC(=O)C=Cc1ccccc1 (racemic)	8
COc1ccc(C=CC(=O)OC(CC(=O)[O-])C[N+](C)(C)C)cc1 (racemic)	56
C[N+](C)(C)CC(CC(=O)[O-])OC(=O)C=Cc1cccc(Br)c1 (racemic)	28
Cc1ccc(C=CC(=O)OC(CC(=O)[O-])C[N+](C)(C)C)cc1 (racemic)	9
C[N+](C)(C)C[C@@H](CC(=O)[O-])OC(=O)CCBr	12
C[N+](C)(C)CC(CC(=O)[O-])OC(=O)CCBr (racemic)	10

Let us examine a further case.
q: Give the measured change in vivo at 150 mg/kg for C[N+](C)(C)CC(CC(=O)[O-])OC(=O)CCC1CCCCC1 (racemic)
a: 55

###

So I've got a bunch of compounds here, and I need their change in vivo at 40 mg/kg values.
Test system: arrhythmia induced by Aconitine in mice
PROTOCOL_DETAILS: arrhythmia induced by Aconitine in mice
Format: in vivo
SETTINGS: Mus musculus, iv, read-out: latency time increase % of controls, arrhythmias
Kindly format the answer as number then unit.

# annotated cases, reported change in vivo at 40 mg/kg shown
COMPOUND	change in vivo at 40 mg/kg
CCCC(CCC)C(=O)O[C@@H](CC(=O)[O-])C[N+](C)(C)C [d dipropyl ACAR]	50%
C[N+](C)(C)CC(CC(=O)[O-])OC(=O)C=Cc1cccc(C(F)(F)F)c1 (racemic) [d,l trifluoromethylcinnamoyl CAR]	50%
CCCC(CCC)C(=O)O[C@H](CC(=O)[O-])C[N+](C)(C)C [l dipropyl ACAR]	60%

Please report change in vivo at 40 mg/kg for every entry that follows.
1. C[N+](C)(C)C[C@@H](CC(=O)[O-])OC(=O)C=Cc1cccc(C(F)(F)F)c1 [l trifluoromethylcinnamoyl CAR]
2. CC(=O)C(=O)OC(CC(=O)[O-])C[N+](C)(C)C (racemic) [d,l pyruvyl CAR]

a:
["60%", "80%"]

###

PROTOCOL_DETAILS: acute toxicity (tolerance) i.p. in mice, Weil method
SETTINGS: mouse, in vivo, ip, Weil method (N = 5, K = 4)
MEASUREMENT_KIND: LD50 (mg/kg)
Give bare numbers, in mg/kg.

COMPOUND	SCALE_UNIT	VALUE
C[N+](C)(C)CC(CC(=O)[O-])OC(=O)C1CCCCC1 (racemic)	mg/kg	850
CCCC(CCC)C(=O)OC(CC(=O)[O-])C[N+](C)(C)C (racemic)	mg/kg	1700
CCC(CC)C(=O)OC(CC(=O)[O-])C[N+](C)(C)C (racemic)	mg/kg	1200
CC(C)(C)C(=O)O[C@H](CC(=O)[O-])C[N+](C)(C)C	mg/kg	618
COc1ccc(C=CC(=O)OC(CC(=O)[O-])C[N+](C)(C)C)cc1 (racemic)	mg/kg	440

Please report LD50 for every entry that follows.
1. CC(C)(C)C(=O)OC(CC(=O)[O-])C[N+](C)(C)C (racemic)
2. CCCC(CCC)C(=O)O[C@@H](CC(=O)[O-])C[N+](C)(C)C

a:
[855, 1600]

q: Give the measured LD50 for Cc1ccc(C=CC(=O)OC(CC(=O)[O-])C[N+](C)(C)C)cc1 (racemic)
a: 620

###

PROTOCOL_DETAILS: acute toxicity (tolerance) i.p. in mice, Weil method
SETTINGS: mouse, in vivo, ip, Weil method (N = 5, K = 4)
So I've got a bunch of compounds here, and I need their LD50 values.
Give bare numbers, in mg/kg.

# annotated cases, reported LD50 shown
COMPOUND	SCALE_UNIT	LD50
C[N+](C)(C)C[C@@H](CC(=O)[O-])OC(=O)CCBr	mg/kg	960
CC(C)Cc1ccc(CC(=O)OC(CC(=O)[O-])C[N+](C)(C)C)cc1 (racemic)	mg/kg	378

Let us examine a further case.
q: Give the measured LD50 for C[N+](C)(C)CC(CC(=O)[O-])OC(=O)CCBr (racemic)
a: 950
